Substrate: tripropionin
Conditions: pH 7; 25 °C
Measure Name: kcat

Protein	Result
unnamed (protein) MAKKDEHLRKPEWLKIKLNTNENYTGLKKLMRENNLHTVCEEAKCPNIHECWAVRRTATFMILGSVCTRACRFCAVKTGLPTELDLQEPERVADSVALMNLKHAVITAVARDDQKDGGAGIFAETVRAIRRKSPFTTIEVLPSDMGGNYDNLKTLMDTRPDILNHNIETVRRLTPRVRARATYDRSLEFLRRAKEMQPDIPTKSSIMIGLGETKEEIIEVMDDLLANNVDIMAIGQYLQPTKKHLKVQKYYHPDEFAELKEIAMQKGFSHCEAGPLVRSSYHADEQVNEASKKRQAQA	150 s⁻¹
unnamed (protein) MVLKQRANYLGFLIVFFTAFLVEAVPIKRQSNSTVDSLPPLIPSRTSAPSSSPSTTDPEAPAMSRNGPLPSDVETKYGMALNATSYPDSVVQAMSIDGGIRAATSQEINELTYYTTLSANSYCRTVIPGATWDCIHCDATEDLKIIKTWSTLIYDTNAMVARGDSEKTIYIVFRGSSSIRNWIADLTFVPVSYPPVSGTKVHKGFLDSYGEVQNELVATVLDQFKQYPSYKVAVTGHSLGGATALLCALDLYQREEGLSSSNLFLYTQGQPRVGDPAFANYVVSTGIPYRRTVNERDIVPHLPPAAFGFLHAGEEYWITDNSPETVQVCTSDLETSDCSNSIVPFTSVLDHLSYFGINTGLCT	200 s⁻¹
unnamed (protein) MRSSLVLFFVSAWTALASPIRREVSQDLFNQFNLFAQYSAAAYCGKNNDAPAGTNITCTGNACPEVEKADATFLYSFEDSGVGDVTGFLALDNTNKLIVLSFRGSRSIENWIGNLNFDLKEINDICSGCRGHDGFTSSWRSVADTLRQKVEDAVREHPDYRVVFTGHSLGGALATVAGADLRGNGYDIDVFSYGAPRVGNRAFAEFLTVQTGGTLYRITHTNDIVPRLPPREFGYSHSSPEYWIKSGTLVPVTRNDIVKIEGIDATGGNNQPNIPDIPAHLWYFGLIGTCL	225 s⁻¹
